- systemName: Recombinant human LTC4 synthase (Homo sapiens)
- testSummary: LTC4 synthase in vitro assay (LTA4 to LTC4, HTRF detection)
Reported IC50 values follow for various compounds

{"columns": ["compound", "IC50 / nM"],
 "data": [
  ["CN(c1ccc(Cl)cc1)c1ccc(C(=O)c2ccc(-n3nc(-c4ccc(Cl)cc4)cc3C(F)(F)F)c(C(=O)O)c2)nc1 [18:6]", 115],
  ["O=C(c1ccc(Oc2ccc3c(c2)OCO3)c(C(=O)O)c1)c1ccc(N(CC2CC2)c2ccc(Cl)cc2)cn1 [1:31]", 142],
  ["COc1ccccc1C(=O)c1ccc(C(=O)c2ccc(N(C)c3ccc(Cl)cc3)cn2)cc1C(=O)O [5:8]", 154],
  ["COc1ccc(C(=O)c2ccc(C(=O)c3ccc(N(CC4CC4)c4ccc(Cl)cc4)cn3)cc2C(=O)O)cc1 [5:4]", 29],
  ["CN(c1ccc(C(=O)c2ccc(Oc3ccccc3)c(C(=O)O)c2)nc1)c1cccc(C(F)(F)F)c1 [1:11]", 176],
  ["CN(c1ccc(Cl)cc1)c1ccc(C(=O)c2ccc(NC3CCC(C(C)(C)C)CC3)c(C(=O)O)c2)nc1 (stereo not shown) [2:2]", 66],
  ["CN(c1ccc(Cl)cc1)c1ccc(C(=O)c2ccc(C(=O)C3CCCO3)c(C(=O)O)c2)nc1 (stereo not shown) [5:25]", 860],
  ["CCc1ccc(N(C)c2ccc(C(=O)c3ccc(C(=O)c4ccccc4)c(C(=O)O)c3)nc2)cc1 [5:23]", 184],
  ["O=C(c1ccc(Oc2ccccc2)c(C(=O)O)c1)c1ccc(N(CC2CCC2)c2ccc(Cl)cc2)cn1 [1:5]", 70],
  ["CN(c1ccc(Cl)cc1)c1ccc(C(=O)c2ccc(NS(=O)(=O)c3cccs3)c(C(=O)O)c2)nc1 [4:3]", 40],
  ["COc1ccc(C(=O)Nc2ccc(C(=O)c3ccc(N(C)c4ccccc4)cn3)cc2C(=O)O)c(OC)c1 [3:34]", 163],
  ["CN(c1ccc(Cl)cc1)c1ccc(C(=O)c2cc(C(=O)O)c(Oc3ccccc3)cn2)cc1 [8:2]", 302],
  ["CN(c1ccc(Cl)cc1)c1ccc(C(=O)c2ccc(-n3cccc3-c3cccc(Cl)c3)c(C(=O)O)c2)nc1 [20:1]", 163],
  ["CN(c1ccc(Cl)cc1)c1ccc(C(=O)c2ccc(NCc3ccc4c(c3)OCO4)c(C(=O)O)c2)nc1 [2:12]", 66],
  ["CN(c1ccc(Cl)cc1)c1cnc(C(=O)c2ccc(Oc3ccc(F)cc3)c(C(=O)O)c2)nc1 [10:1]", 154],
  ["CN(c1ccc(Cl)cc1)c1ccc(C(=O)c2ccc(N3CCC(C(F)(F)F)CC3)c(C(=O)O)c2)nc1 [2:22]", 2000]
]}

====

- systemName: Recombinant human LTC4 synthase (Homo sapiens, UniProt Q16873)
- testSummary: LTC4 synthase in vitro assay (LTA4 to LTC4, HTRF detection)

{"columns": ["molecule", "systemName", "unitsLabel", "IC50"],
 "data": [
  ["COc1ccc(C(=O)c2ccc(C(=O)c3ccc(N(C)c4ccc(Cl)cc4)cn3)cc2C(=O)O)cc1 [5:3]", "Recombinant human LTC4 synthase (Homo sapiens, UniProt Q16873)", "nM", 50],
  ["CSc1ccccc1Oc1ccc(C(=O)c2ccc(N(C)c3ccc(Cl)cc3)cn2)cc1C(=O)O [1:23]", "Recombinant human LTC4 synthase (Homo sapiens, UniProt Q16873)", "nM", 362],
  ["CN(c1ccc(Cl)cc1)c1ccc(C(=O)c2ccc(-n3ccnc3-c3ccccc3)c(C(=O)O)c2)nc1 [19:2]", "Recombinant human LTC4 synthase (Homo sapiens, UniProt Q16873)", "nM", 486],
  ["CN(c1ccc(Cl)cc1)c1ccc(C(=O)c2ccc(-c3cc(Cl)ccc3Cl)c(C(=O)O)c2)nc1 [21:7]", "Recombinant human LTC4 synthase (Homo sapiens, UniProt Q16873)", "nM", 269]
]}

====

- systemName: Recombinant human LTC4 synthase (Homo sapiens)
- Construct: made in house; host or cells: Pichia pastoris ('Piccia pastoralis' [sic])
- Sequence (Q16873 1-150): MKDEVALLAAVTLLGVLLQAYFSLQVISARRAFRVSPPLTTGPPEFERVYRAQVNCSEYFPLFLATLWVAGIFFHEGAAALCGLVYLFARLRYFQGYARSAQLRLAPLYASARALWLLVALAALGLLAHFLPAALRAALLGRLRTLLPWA
- testSummary: LTC4 synthase in vitro assay (LTA4 to LTC4, HTRF detection)
- Type: biochemical
pIC50: −log10 of the molar value.
Reported pIC50 values follow for various compounds

{"columns": ["smilesString", "pIC50"],
 "data": [
  ["COc1ccc(CNc2ccc(C(=O)c3ccc(N(C)c4ccc(Cl)cc4)cn3)cc2C(=O)O)cc1", 6.82],
  ["CN(c1ccc(Cl)cc1)c1ccc(C(=O)c2ccc(C(=O)c3cccc(OC(F)(F)F)c3)c(C(=O)O)c2)nc1", 7.22],
  ["CN(c1ccc(Cl)cc1)c1ccc(C(=O)c2ccc(OCc3ccc(Cl)cc3)c(C(=O)O)c2)nc1", 6.44],
  ["COc1cccc(C(=O)Nc2ccc(C(=O)c3ccc(N(CC4CC4)c4ccc(Cl)cc4)cn3)cc2C(=O)O)c1", 7.48],
  ["COc1ccc(COc2ccc(C(=O)c3ccc(N(C)c4ccc(Cl)cc4)cn3)cc2C(=O)O)cc1", 6.42],
  ["COc1ccc(C(=O)c2ccc(C(=O)c3ccc(N(CC(F)(F)F)c4ccc(Cl)cc4F)cn3)cc2C(=O)O)cc1", 6.40],
  ["O=C(c1ccc(Oc2ccccc2)c(C(=O)O)c1)c1ccc(-c2cccc(C(F)(F)F)c2)cn1", 6.15],
  ["O=C(c1ccc(Oc2ccccc2)c(C(=O)O)c1)c1ccc(Nc2ccc(Cl)cc2)cn1", 6.55],
  ["CN(c1ccc(Cl)cc1)c1ccc(C(=O)c2ccc(-c3ccccc3Cl)c(C(=O)O)c2)nc1", 6.46],
  ["COc1ccc(C(=O)Nc2ccc(C(=O)c3ccc(N(C)c4ccc(Cl)cc4)cn3)cc2C(=O)O)c(C)c1", 7.38],
  ["O=C(c1ccc(-n2nncc2-c2ccccn2)c(C(=O)O)c1)c1ccc(N(CC2CC2)c2ccc(Cl)cc2)cn1", 6.97],
  ["CC1(CN(c2ccc(C(=O)c3ccc(Oc4ccccc4F)c(C(=O)O)c3)nc2)c2ccc(Cl)cc2F)COC1", 5.88],
  ["CN(c1ccc(Cl)cc1)c1ccc(C(=O)c2ccc(NC(=O)c3ccccc3)c(C(=O)O)c2)nc1", 7.47],
  ["CN(c1ccc(Cl)cc1)c1ccc(C(=O)c2ccc(C(=O)Cc3ccccc3)c(C(=O)O)c2)nc1", 6.59],
  ["CN(c1ccc(Cl)cc1)c1ccc(C(=O)c2ccc(NC(=O)c3cccc4c3OCO4)c(C(=O)O)c2)nc1", 7.30],
  ["COc1ccc(C(=O)Nc2ccc(C(=O)c3ccc(N(C)c4ccc(Cl)cc4)cn3)cc2C(=O)O)c(OC)c1", 7.64]
]}

====

- systemName: Recombinant human LTC4 synthase (Homo sapiens, UniProt Q16873)
- testSummary: LTC4 synthase in vitro assay (LTA4 to LTC4, HTRF detection)
Threshold check on IC50: strictly below 100 nM is 1; on or above 100 nM is -1.

{"columns": ["smilesString", "className"],
 "data": [
  ["CN(c1ccc(Cl)cc1)c1ccc(C(=O)c2ccc(NC3CCS(=O)(=O)CC3)c(C(=O)O)c2)nc1", -1],
  ["CN(c1ccc(Cl)cc1)c1ccc(C(=O)c2ccc(Nc3ccc(C(F)(F)F)cc3)c(C(=O)O)c2)nc1", 1],
  ["CN(c1ccc(C(F)(F)F)cc1)c1ccc(C(=O)c2ccc(Oc3ccccc3)c(C(=O)O)c2)nc1", -1],
  ["COc1cccc(C(=O)Nc2ccc(C(=O)c3ccc(N(C)c4ccccc4)cn3)cc2C(=O)O)c1", -1],
  ["CN(c1ccc(Cl)cc1)c1ccc(C(=O)c2ccc(NC(=O)c3ccc(OC(F)(F)F)cc3)c(C(=O)O)c2)nc1", 1],
  ["CCN(c1ccc(C(=O)c2ccc(Oc3ccccc3)c(C(=O)O)c2)nc1)c1cccc(C(F)(F)F)c1", -1],
  ["CN(c1ccc(Cl)cc1)c1ccc(C(=O)c2ccc(-n3nncc3-c3ccccc3)c(C(=O)O)c2)nc1", -1],
  ["CN(c1ccc(Cl)cc1)c1ccc(C(=O)c2ccc(-c3ccc(Cl)cc3Cl)c(C(=O)O)c2)nc1", -1],
  ["O=C(c1ccc(Oc2ccccc2F)c(C(=O)O)c1)c1ccc(N(CC2CC2)c2ccc(Cl)cc2F)cn1", -1],
  ["O=C(Nc1ccc(C(=O)c2ccc(N(CC3CC3)c3ccc(Cl)cc3)cn2)cc1C(=O)O)c1ccc2c(c1)OC(F)(F)O2", 1],
  ["O=C(c1ccc(Oc2ccccc2)c(C(=O)O)c1)c1ccc(N(CC2CC2)c2ccc(F)c(F)c2)cn1", -1],
  ["O=C(c1ccc(Oc2ccccc2)c(C(=O)O)c1)c1ccc(OCc2ccccc2C(F)(F)F)cn1", -1],
  ["CN(c1ccc(Cl)cc1)c1ccc(C(=O)c2ccc(N3CCC(C(C)(C)C)CC3)c(C(=O)O)c2)nc1", -1],
  ["COc1ccc(C(=O)c2ccc(C(=O)c3ccc(N(CC4CC4)c4ccc(Cl)cc4F)cn3)cc2C(=O)O)cc1", 1],
  ["CN(c1ccc(Cl)cc1)c1ccc(C(=O)c2ccc(Oc3ccccc3)c(C(=O)O)n2)cc1", -1],
  ["CN(c1ccc(Cl)cc1)c1ccc(C(=O)c2ccc(NS(=O)(=O)c3ccc(C(F)(F)F)cc3)c(C(=O)O)c2)nc1", 1]
]}
